Tested on: Caski (human epithelial cervical cancer cell line)
Test: CCK-8 antiproliferative assay, Caski
Format: cell-based
Conditions: Ca-Ski, 48 h, read-out: IC50, Mean ± SE, Caski
endpoint.label: IC50 (µM)

• COc1ccc(C(=O)c2ccc3c(ccn3C)c2)c2c1C=CC(C)(C)O2 [compound 14b] = 0.037
• COc1ccc(C(=O)c2ccc3[nH]ccc3c2)c2c1C=CC(C)(C)O2 [14a] = 0.086
• COc1cc(C(=O)c2ccc3[nH]ccc3c2)cc2c1OC(C)(C)C=C2 [21a] = 0.211
• COc1cc(C(=O)c2cccc3[nH]ccc23)cc2c1OC(C)(C)C=C2 [19a] = 2.31
• COc1cc(C(=O)/C=C/c2cn(C)c3ccccc23)cc2c1OC(C)(C)C=C2 [5b] = 0.729
• COc1cc(C(=O)c2cccc3c2ccn3C)cc2c1OC(C)(C)C=C2 [19b] = 1.1
• COc1ccc(C(=O)c2ccc(OC)c3c2OC(C)(C)C=C3)cc1 [Compd. A, reference compound] = 0.892
• COc1ccc(/C=C/C(=O)c2ccc(OC)c3c2OC(C)(C)C=C3)cc1 [Millepachine] = 6.71
• COc1cc(C(=O)/C=C/c2c[nH]c3ccccc23)cc2c1OC(C)(C)C=C2 [compound 5a] = 1.93
• COc1ccc(C(=O)c2cccc3[nH]ccc23)c2c1C=CC(C)(C)O2 [compound 11a] = 0.832
• COc1ccc(C(=O)c2cccc3c2ccn3C)c2c1C=CC(C)(C)O2 [11b] = 0.516
• COc1cc(C(=O)c2ccc3c(ccn3C)c2)cc2c1OC(C)(C)C=C2 [21b] = 0.106

* * *

Target: tubulin (colchicine binding site) (Sus scrofa)
Assay: colchicine competitive inhibition (binding) assay
Description: Tubulin–microtubule homeostasis is crucial for cell mitosis. Figure 2 Effect of compound 14b on tubulin. […] The experiments were performed at least three times, and representative images are shown. Scale bars are 10 μm. […] The backbone of tubulin is shown in ribbon representation (α-tubulin, yellow; β-tubulin, green). […] The data were shown as mean ± SE (standard error) of at least three independent experiments.
endpoint.label: IC50

- COc1ccc(C(=O)c2ccc3c(ccn3C)c2)c2c1C=CC(C)(C)O2 [compound 14b]: 1040 nM

* * *

Test system: C42B (human prostate cancer line)
Assay: CCK-8 antiproliferative assay, C42B
Format: cell-based
Conditions: 48 h, read-out: IC50, Mean ± SE, C42B
pIC50: −log10 of the molar value.
endpoint.label: pIC50

- COc1ccc(C(=O)c2ccc3[nH]ccc3c2)c2c1C=CC(C)(C)O2 [14a]: 7.05
- COc1cc(C(=O)/C=C/c2cn(C)c3ccccc23)cc2c1OC(C)(C)C=C2 [5b]: 6.24
- COc1cc(C(=O)c2cccc3[nH]ccc23)cc2c1OC(C)(C)C=C2 [19a]: 5.62

* * *

Tested on: HCT-8/VCR (HCT-8 cell line resistant to vincristine)
Assay: CCK-8 cytotoxicity, HCT-8/VCR
Assay type: cell-based
Details: Homo sapiens, 48 h, CCK-8, vincristine-resistant, read-out: IC50, Mean ± SE, HCT-8/VCR
pIC50: −log10 of the molar value.
endpoint.label: pIC50

- COc1ccc(C(=O)c2ccc3c(ccn3C)c2)c2c1C=CC(C)(C)O2 [compound 14b]: 6.91

* * *

Experiment: metabolic stability in human liver microsomes
Format: in vitro ADME
Details: human, liver microsomes, 37 °C, NADPH regenerating system, 120 min
endpoint.label: remaining at 2 h

• COc1ccc(C(=O)c2ccc3c(ccn3C)c2)c2c1C=CC(C)(C)O2 [compound 14b] = 74.5%

* * *

Tested on: MCF-7/DOX (MCF-7 cell line resistant to doxorubicin)
Test: CCK-8 cytotoxicity, MCF-7/DOX
Assay type: cell-based
Settings: Homo sapiens, MCF7-DOX; 48 h, CCK-8, doxorubicin-resistant; read-out: IC50, Mean ± SE, MCF-7/DOX
Description: Besides the high cytotoxicity, drug resistance is the other limiting factor of chemotherapeutics. In this study, the cytotoxicities of compound 14b towards five kinds of drug-resistant cancer cell lines were also evaluated. Except three kinds of cell lines that are resistant to three drugs commonly used in clinical practice, two kinds of cell lines that are resistant to MTAs were also evaluated. […]
pIC50: −log10 of the molar value.
endpoint.label: pIC50

- COc1ccc(C(=O)c2ccc3c(ccn3C)c2)c2c1C=CC(C)(C)O2 [compound 14b]: 7.29

* * *

System: C42B (human prostate cancer line)
Test: CCK-8 antiproliferative assay, C42B
Assay type: cell-based
Conditions: 48 h, read-out: IC50, Mean ± SE, C42B
pIC50: −log10 of the molar value.
Entries and their pIC50 values follow.
endpoint.label: pIC50

- COc1ccc(C(=O)c2cccc3[nH]ccc23)c2c1C=CC(C)(C)O2 [compound 11a]: 6.04
- COc1cc(C(=O)c2cccc3c2ccn3C)cc2c1OC(C)(C)C=C2 [19b]: 5.97
- COc1ccc(/C=C/C(=O)c2ccc(OC)c3c2OC(C)(C)C=C3)cc1: 5.50
- COc1cc(C(=O)/C=C/c2c[nH]c3ccccc23)cc2c1OC(C)(C)C=C2: 5.86
- COc1cc(C(=O)c2ccc3[nH]ccc3c2)cc2c1OC(C)(C)C=C2 [21a]: 6.68
- COc1ccc(C(=O)c2ccc(OC)c3c2OC(C)(C)C=C3)cc1 [Compd. A, reference compound]: 6.28
- COc1ccc(C(=O)c2ccc3c(ccn3C)c2)c2c1C=CC(C)(C)O2 [compound 14b]: 7.29
- COc1cc(C(=O)c2ccc3c(ccn3C)c2)cc2c1OC(C)(C)C=C2 [21b]: 6.97
- COc1ccc(C(=O)c2cccc3c2ccn3C)c2c1C=CC(C)(C)O2 [11b]: 6.34

* * *

Biological target: UniProtKB P02554
endpoint.label: IC50 (µM)

• COc1ccc(C(=O)c2ccc3c(ccn3C)c2)c2c1C=CC(C)(C)O2 [compound 14b] = 2.07

* * *

System: L-02 (normal human hepatocytes)
Experiment: CCK-8 cytotoxicity, L-02 normal cells
Type: cell-based
Conditions: Homo sapiens, Hepatocyte; 48 h, CCK-8, normal cells; read-out: IC50, Mean ± SE, L-02
pIC50: −log10 of the molar value.
endpoint.label: pIC50

- COc1ccc(C(=O)c2ccc3c(ccn3C)c2)c2c1C=CC(C)(C)O2 [compound 14b]: 5.90

* * *

Assay: metabolic stability in human liver microsomes
Assay type: in vitro ADME
Details: human, liver microsomes, 37 °C, NADPH regenerating system, 240 min
endpoint.label: remaining at 4 h (%)

- COc1ccc(C(=O)c2ccc3c(ccn3C)c2)c2c1C=CC(C)(C)O2 [compound 14b]: 43.4

* * *

Test system: MCF-10A (normal human mammary epithelial cells)
Experiment: CCK-8 cytotoxicity, MCF-10A normal cells
Format: cell-based
Conditions: Homo sapiens, MCF-10A; 48 h, CCK-8, normal cells; read-out: IC50, Mean ± SE, MCF-10A
endpoint.label: IC50 (µM)

* COc1ccc(C(=O)c2ccc3c(ccn3C)c2)c2c1C=CC(C)(C)O2 [compound 14b] | 6.26

* * *

Assay: metabolic stability in human liver microsomes
Assay type: in vitro ADME
Settings: human, liver microsomes, 37 °C, NADPH regenerating system, 150 min
endpoint.label: remaining at 2.5 h (%)

• COc1ccc(C(=O)c2ccc3c(ccn3C)c2)c2c1C=CC(C)(C)O2 [compound 14b] = 67.8

* * *

Test system: HepG2 (human liver carcinoma cell line)
Assay: CCK-8 antiproliferative assay, HepG2
Type: cell-based
Settings: 48 h, read-out: IC50, Mean ± SE, HepG2
// NB: equality with 800 nM counts as FALSE; only IC50 strictly below is TRUE

• COc1cc(C(=O)c2ccc3[nH]ccc3c2)cc2c1OC(C)(C)C=C2 [21a] = TRUE
• COc1ccc(C(=O)c2ccc(OC)c3c2OC(C)(C)C=C3)cc1 [Compd. A, reference compound] = TRUE
• COc1cc(C(=O)/C=C/c2c[nH]c3ccccc23)cc2c1OC(C)(C)C=C2 [compound 5a] = FALSE
• COc1ccc(C(=O)c2ccc3[nH]ccc3c2)c2c1C=CC(C)(C)O2 [14a] = TRUE
• COc1cc(C(=O)c2ccc3c(ccn3C)c2)cc2c1OC(C)(C)C=C2 [21b] = TRUE
• COc1ccc(/C=C/C(=O)c2ccc(OC)c3c2OC(C)(C)C=C3)cc1 [Millepachine] = FALSE
• COc1cc(C(=O)c2cccc3c2ccn3C)cc2c1OC(C)(C)C=C2 [19b] = FALSE
• COc1ccc(C(=O)c2ccc3c(ccn3C)c2)c2c1C=CC(C)(C)O2 [compound 14b] = TRUE
• COc1ccc(C(=O)c2cccc3c2ccn3C)c2c1C=CC(C)(C)O2 [11b] = TRUE
• COc1ccc(C(=O)c2cccc3[nH]ccc23)c2c1C=CC(C)(C)O2 [compound 11a] = FALSE
• COc1cc(C(=O)/C=C/c2cn(C)c3ccccc23)cc2c1OC(C)(C)C=C2 [5b] = TRUE
• COc1cc(C(=O)c2cccc3[nH]ccc23)cc2c1OC(C)(C)C=C2 [19a] = FALSE
